test system: NCI-H23; assay: NCI tumour cell line growth inhibition, 48 h
Calls of active or inactive are those of the source. Rule as the data show it: active = GI50 up to about 1.1 µM and inactive = higher.
Listing of recorded GI50 by entry.
assay_endpoint: GI50

1) O=C(NCCOCCO)c1ccc(O)cc1	> 100 µM (inactive)
2) CC1(C)CC(=O)C(Cc2ccccc2)(Cc2ccccc2)C(=O)C1	> 100 µM (inactive)
3) C[C@]12CCC(=O)C=C1CC[C@@H]1C2CC[C@]2(C)Nc3c(ncn3-c3ccc(F)cc3)CC12 (some centres undefined)	23.1 µM (inactive)
4) COc1ccc(C2NC(c3ccc(OC)cc3)C(C)C(=O)C2C)cc1 (centres undefined)	> 100 µM (inactive)
